- subject.of.test: human GLP-1 receptor (human, UniProt P43220 24-463)
- run.description: cell-based or functional assay
Bridge positions count the residues as written; N and C are the ends. Square brackets hold non-standard residues; d marks the D form. Ends that are not written are not given here. PhLac = O=C(O)[C@@H](O)Cc1ccccc1
Consider the following binders; for each one, report its GLP-1 agonism EC50.
Express the result in nM but write the number alone.

Short answer for SQGT[PhLac]TSDYSKYLDERRAKDFVQWLMDT-NH2 (lactam 15-19; also: ester (depsipeptide) bond Thr5-PLA6) [[S2Q3-O-PLA6, D9, E16K20(Lactam), D28] G(2-29)] : GLP-1 agonism EC50 was 112

Short answer for SQGTFTSEYSKYLDERRAKDFVQWLMDT-NH2 (lactam 15-19) [[S2Q3, E9, E16K20(Lactam), D28] G(2-29)] : GLP-1 agonism EC50 was 284

Short answer for [PhLac]TSEYSKYLDSRRAQDFVQWLMNT-NH2 (also called [PLA6, E9]; G(6-29); [PLA6, E9]Glucagon(6-29)) [[PLA^6, E^9]Glucagon(aa6-29)-NH2] : GLP-1 agonism EC50 was 901

Short answer for [PhLac]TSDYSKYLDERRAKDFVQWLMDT-NH2 (lactam 11-15) [[PLA6, E16K20(lactam), D28]G(6-29)] : GLP-1 agonism EC50 was 18.2

Short answer for AEGT[PhLac]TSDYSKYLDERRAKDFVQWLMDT-NH2 (lactam 15-19; also: PLA6 linked to Thr5 by an ester bond (depsipeptide)) [[A2E3-O-PLA6, D9, E16K20(Lactam), D28] G(2-29)] : GLP-1 agonism EC50 was 18

Short answer for [PhLac]TSEYSKYLDSRRAQDFVQWLMNT-NH2 (lactam 4-7) [[PLA6, E9K12(Lactam)] G(6-29)] : GLP-1 agonism EC50 was 144
